target: PRMT5/MEP50 (Homo sapiens, UniProt O14744); construct: Flag-PRMT5; assay: PRMT5 Biochemical Assay (PRMT5/MEP50 enzyme assay on peptide substrate, 3H-SAM Flashplate); details: PRMT5/MEP50 4 nM, 3H-SAM 75 nM, peptide 40 nM, 30 min preincubation at 25 degrees Celsius
Sequence (O14744 with tags, fused parts or gaps): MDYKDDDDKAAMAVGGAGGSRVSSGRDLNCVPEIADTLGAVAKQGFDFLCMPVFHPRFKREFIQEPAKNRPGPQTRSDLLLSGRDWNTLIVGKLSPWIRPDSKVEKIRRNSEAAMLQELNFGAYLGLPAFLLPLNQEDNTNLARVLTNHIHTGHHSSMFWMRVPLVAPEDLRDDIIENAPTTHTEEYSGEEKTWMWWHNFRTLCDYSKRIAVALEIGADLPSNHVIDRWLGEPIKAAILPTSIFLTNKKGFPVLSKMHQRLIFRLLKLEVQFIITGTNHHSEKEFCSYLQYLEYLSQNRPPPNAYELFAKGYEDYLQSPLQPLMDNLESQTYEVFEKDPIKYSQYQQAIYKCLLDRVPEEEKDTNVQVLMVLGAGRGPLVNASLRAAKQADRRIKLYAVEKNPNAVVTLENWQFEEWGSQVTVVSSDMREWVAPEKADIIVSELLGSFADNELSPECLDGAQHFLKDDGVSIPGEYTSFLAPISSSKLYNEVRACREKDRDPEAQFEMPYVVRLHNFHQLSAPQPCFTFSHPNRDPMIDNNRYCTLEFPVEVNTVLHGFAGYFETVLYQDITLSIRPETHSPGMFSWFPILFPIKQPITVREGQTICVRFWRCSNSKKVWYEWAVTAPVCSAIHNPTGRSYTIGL
Sequence (Q9BQA1 with tags, fused parts or gaps partner limits assumed): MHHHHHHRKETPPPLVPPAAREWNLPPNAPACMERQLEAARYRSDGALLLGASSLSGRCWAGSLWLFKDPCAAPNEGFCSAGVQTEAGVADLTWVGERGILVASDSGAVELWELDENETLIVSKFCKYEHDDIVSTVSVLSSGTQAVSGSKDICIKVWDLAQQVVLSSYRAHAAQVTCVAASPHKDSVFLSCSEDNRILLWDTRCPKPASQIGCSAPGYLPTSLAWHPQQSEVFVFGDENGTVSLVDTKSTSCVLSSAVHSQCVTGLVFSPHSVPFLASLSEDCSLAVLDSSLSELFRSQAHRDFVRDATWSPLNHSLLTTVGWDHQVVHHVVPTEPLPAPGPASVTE
MEASURED_ATTRIBUTE: IC50

See these solved cases before continuing.
Cn1cnc2c1CN(C[C@@H](O)CNC(=O)c1cc(NC3COC3)ncn1)CC2: > 10 µM
CC(=O)N1CCC(Nc2cc(C(=O)NC[C@H](O)CN3CCc4c(cnn4C)C3)ccn2)CC1: 1 to 10 µM
CC(=O)N1CCC(Nc2cc(C(=O)NC[C@H](O)CN3CCc4cn[nH]c4C3)ncn2)CC1: > 10 µM

# next molecule below
IN: For PRMT5/MEP50 (Homo sapiens, UniProt O14744), provide IC50 of CC(=O)N1CCC(Nc2cc(C(=O)NC[C@H](O)CN3CCc4nc(C)[nH]c4C3)ccn2)CC1 please.
OUT: > 10 µM
